Target: HGFA (Homo sapiens, UniProt Q04756)
Construct: purchased R&D Systems 1514-SE-010
Sequence (Q04756 408-655 limits assumed): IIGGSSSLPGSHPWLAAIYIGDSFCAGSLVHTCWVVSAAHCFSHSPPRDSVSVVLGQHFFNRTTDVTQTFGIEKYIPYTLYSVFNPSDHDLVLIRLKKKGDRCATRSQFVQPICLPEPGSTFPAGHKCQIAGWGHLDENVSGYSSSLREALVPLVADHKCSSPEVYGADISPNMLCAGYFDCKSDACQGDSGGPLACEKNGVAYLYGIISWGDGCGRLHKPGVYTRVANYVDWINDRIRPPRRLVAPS
Sequence (Q04756 373-407 partner limits assumed): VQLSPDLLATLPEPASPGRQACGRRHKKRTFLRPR
Assay: Fluorogenic kinetic enzyme inhibitor assay, HGFA
Format: biochemical
Conditions: read-out: HGFA IC50
Hi! Could you tag entries with IC50 below 0.5 µM as TRUE, and those at or above as FALSE? Much appreciated.

Compound	Cat
CCC(C)[C@H](NC(C)=O)C(=O)N[C@@H](CCC(N)=O)C(=O)N[C@@H](CO)C(=O)N[C@@H](CCCNC(=N)N)C(=O)c1nc2ccccc2s1 (stereo partly drawn)	FALSE
CC(=O)N[C@@H](Cc1c[nH]c2ccccc12)C(=O)N[C@@H](Cc1ccccc1)C(=O)N[C@@H](CCCNC(=N)N)C(=O)c1nc2ccccc2s1	TRUE
CC(=O)N[C@H]1Cc2ccc(cc2)OCCCC[C@@H](C(=O)N[C@H](CCCNC(=N)N)C(=O)c2nc3ccccc3s2)NC(=O)[C@@H](Cc2c[nH]c3ccccc23)NC1=O [VD4162A]	TRUE
CC(=O)N[C@@H](CO)C(=O)N[C@@H](Cc1cncn1COCc1ccccc1)C(=O)N[C@@H](CC(C)C)C(=O)N[C@@H](CCCNC(=N)N)C(=O)c1nc2ccccc2s1	FALSE
N=C(N)NCCC[C@H](NC(=O)[C@H](Cc1ccccc1)NC(=O)[C@H](CCC(N)=O)NCc1ccccc1)C(=O)c1nc2ccccc2s1	TRUE
CCC(C)[C@H](NC(C)=O)C(=O)N[C@@H](CCC(N)=O)C(=O)N[C@H](C(=O)N[C@@H](CCCNC(=N)N)C(=O)c1nc2ccccc2s1)C(C)O (stereo partly drawn)	FALSE
CN(C)[C@@H](CCC(N)=O)C(=O)N[C@@H](Cc1ccccc1)C(=O)N[C@H](CCCNC(=N)N)C(=O)c1nc2ccccc2s1	FALSE
N=C(N)NCCC[C@H](NC(=O)[C@H](Cc1ccccc1)NC(=O)[C@H](CCC(N)=O)NC(=O)c1ccccc1)C(=O)c1nc2ccccc2s1	TRUE
CC(=O)N[C@H]1Cc2ccc(cc2)Oc2cccc(c2)C[C@@H](C(=O)N[C@H](CCCNC(=N)N)C(=O)c2nc3ccccc3s2)NC(=O)[C@H](CC(C)C)NC1=O [VD5064A]	FALSE
CCC(C)[C@H](NC(C)=O)C(=O)N[C@@H](CCC(=O)O)C(=O)N[C@@H](Cc1ccccc1)C(=O)N[C@@H](CCCNC(=N)N)C(=O)c1nc2ccccc2s1 (stereo partly drawn)	TRUE
CC(=O)N1CCC[C@H]1C(=O)N[C@@H](CO)C(=O)N[C@@H](CCCCN)C(=O)N[C@H](CCCNC(=N)N)C(=O)c1nc2ccccc2s1 [MM3194C]	FALSE

Where do the numbers come from? From patent US20250171495A1.
